Recorded values, source ChEMBL document CHEMBL1147043.

experiment: AUC (0 to T) in Beagle dog at 2 mg/kg, po after 12 hrs; assay type: ADME, organism-based, Canis lupus familiaris; set-up: time < 12 hr, dose 2 mg/kg, route oral; details: plasma

- Compound: "COc1ccc(OC(=O)N(CC(=O)O)Cc2ccc(OCCc3nc(-c4ccccc4)oc3C)cc2)cc1.Cl [MURAGLITAZAR CHLORIDE]"
  AUC(0-t) at 12 h: "1300 ng·h/mL"

* * *

experiment: Half life in cynomolgus monkey at 1.9 mg/kg, po after 144 hrs; assay type: ADME, organism-based, Macaca fascicularis; parameters: dose 1.9 mg/kg, route oral; conditions: in vivo
Measurement Kind: half-life (h)

- Molecule: "COc1ccc(OC(=O)N(CC(=O)O)Cc2ccc(OCCc3nc(-c4ccccc4)oc3C)cc2)cc1.Cl [MURAGLITAZAR CHLORIDE]"
  Readout Number: 18
